Numbers sourced from patent US7943770B2.

// reported pIC50 per item
Sequence of the target: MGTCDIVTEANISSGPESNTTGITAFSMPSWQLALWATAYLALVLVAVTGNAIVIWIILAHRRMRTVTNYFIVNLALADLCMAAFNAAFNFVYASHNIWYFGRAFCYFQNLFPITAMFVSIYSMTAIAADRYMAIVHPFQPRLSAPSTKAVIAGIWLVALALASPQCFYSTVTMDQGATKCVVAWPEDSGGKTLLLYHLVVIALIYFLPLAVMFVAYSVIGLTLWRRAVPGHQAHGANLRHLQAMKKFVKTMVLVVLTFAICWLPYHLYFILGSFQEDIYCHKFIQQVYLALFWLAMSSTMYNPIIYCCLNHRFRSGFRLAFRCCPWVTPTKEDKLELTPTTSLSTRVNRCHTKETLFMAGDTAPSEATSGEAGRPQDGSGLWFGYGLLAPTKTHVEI
pIC50: −log10 of the molar value.
measurement_name: pIC50

[[record]]
compound = "CCC[C@@H]1Nc2ccccc2[C@H]2[C@@H]1CCN2C(=O)[C@H]1CCCC[C@H]1NC(=O)NCC [Example 198]"
measurement_name = "pIC50"
result = "> 8.00"

[[record]]
compound = "O=C(N[C@@H]1CCCC[C@@H]1C(=O)N1CC[C@@H]2[C@H](c3cc[nH]c3)Nc3ccccc3[C@@H]21)c1ccccc1 (relative stereo) [Example 52]"
measurement_name = "pIC50"
result = "> 8.00"

[[record]]
compound = "O=C(/C=C/c1c[nH]cn1)N[C@@H]1CCCC[C@@H]1C(=O)N1CC[C@@H]2[C@H](c3ccccc3)Nc3ccccc3[C@@H]21 [Example 128]"
measurement_name = "pIC50"
result = "> 8.00"

[[record]]
compound = "COC[C@@H]1Nc2ccccc2[C@H]2[C@@H]1CCN2C(=O)[C@H]1CCCC[C@H]1NC(=O)c1ccc(N2CCOCC2)nc1 [Example 286]"
measurement_name = "pIC50"
result = "> 8.00"

[[record]]
compound = "O=C(Nc1ccc(F)cc1)N[C@@H]1CCCC[C@@H]1C(=O)N1CC[C@@H]2[C@H](c3ncc[nH]3)Nc3ccccc3[C@@H]21 [Example 298]"
measurement_name = "pIC50"
result = "> 9.00"

[[record]]
compound = "O=C(/C=C/c1ccc(F)cc1)N[C@@H]1CCCC[C@@H]1C(=O)N1CC[C@@H]2[C@H](c3ncc[nH]3)Nc3ccccc3[C@@H]21 [Example 297]"
measurement_name = "pIC50"
result = "> 9.00"


###

molecular target: hNK2 receptor (Homo sapiens)
# IC50 listing for each entry below
measurement_name: IC50

[[record]]
compound = "COC[C@@H]1Nc2ccccc2[C@H]2[C@@H]1CCN2C(=O)[C@H]1CCCC[C@H]1NC(=O)Nc1ccccc1 [Example 204]"
measurement_name = "IC50"
result = "< 1 nM"

[[record]]
compound = "O=C(N[C@@H]1CCCC[C@@H]1C(=O)N1CC[C@@H]2[C@H](c3ccccn3)Nc3ccccc3[C@@H]21)c1ccccc1 (relative stereo) [Example 19]"
measurement_name = "IC50"
result = "< 10 nM"

[[record]]
compound = "COCCCNC(=O)N[C@@H]1CCCC[C@@H]1C(=O)N1CC[C@@H]2[C@H](c3ccccc3)Nc3ccccc3[C@@H]21 [Example 161]"
measurement_name = "IC50"
result = "< 10 nM"

[[record]]
compound = "O=C(N[C@@H]1CCCC[C@@H]1C(=O)N1CC[C@@H]2[C@H](c3nccs3)Nc3ccccc3[C@@H]21)c1ccccc1 (relative stereo) [Example 25]"
measurement_name = "IC50"
result = "< 10 nM"

[[record]]
compound = "O=C(N[C@@H]1CCCC[C@@H]1C(=O)N1CC[C@@H]2[C@H](c3cocn3)Nc3ccccc3[C@@H]21)c1ccccc1 [Example 76]"
measurement_name = "IC50"
result = "< 10 nM"

[[record]]
compound = "CCCCNC(=O)N[C@@H]1CCCC[C@@H]1C(=O)N1CC[C@@H]2[C@H](c3ccsc3)Nc3ccccc3[C@@H]21 [Example 188]"
measurement_name = "IC50"
result = "< 1 nM"

[[record]]
compound = "COC[C@@H]1Nc2ccccc2[C@H]2[C@@H]1CCN2C(=O)[C@H]1CCCC[C@H]1NC(=O)c1ccc(OC)c(C#N)c1 [Example 275]"
measurement_name = "IC50"
result = "< 1 nM"

[[record]]
compound = "O=C(N[C@@H]1CCCC[C@@H]1C(=O)N1CC[C@@H]2[C@H](c3ccccc3)Nc3ccccc3[C@@H]21)c1ccc2ccccc2c1 [Example 107]"
measurement_name = "IC50"
result = "< 1 nM"

[[record]]
compound = "CCCCNC(=O)N[C@@H]1CCCC[C@@H]1C(=O)N1CC[C@@H]2[C@H](c3ncc[nH]3)Nc3ccccc3[C@@H]21 [Example 299]"
measurement_name = "IC50"
result = "< 1 nM"

[[record]]
compound = "COC[C@@H]1Nc2ccccc2[C@H]2[C@@H]1CCN2C(=O)[C@H]1CCCC[C@H]1NC(=O)c1ccc(N2N=C(C)CC2=O)cc1 [Example 252]"
measurement_name = "IC50"
result = "< 1 nM"


###

pIC50: −log10 of the molar value.
// hNK2 receptor (Homo sapiens, UniProt P21452) pIC50 records
measurement_name: pIC50

[[record]]
compound = "CCNC(=O)N[C@@H]1CCCC[C@@H]1C(=O)N1CC[C@@H]2[C@H](c3ccccc3)Nc3ccccc3[C@@H]21 [Example 151]"
measurement_name = "pIC50"
result = "> 8.00"

[[record]]
compound = "Cc1ccccc1C(=O)N[C@@H]1CCCC[C@@H]1C(=O)N1CC[C@@H]2[C@H](c3ccccc3)Nc3ccccc3[C@@H]21 [Example 97]"
measurement_name = "pIC50"
result = "> 8.00"

[[record]]
compound = "COC[C@@H]1Nc2ccccc2[C@H]2[C@@H]1CCN2C(=O)[C@H]1CCCC[C@H]1NC(=O)c1ccc(C#N)c(OC)c1 [Example 274]"
measurement_name = "pIC50"
result = "> 8.00"

[[record]]
compound = "O=C(N[C@@H]1CCCC[C@@H]1C(=O)N1CC[C@@H]2[C@H](c3ccc(F)cc3)Nc3ccccc3[C@@H]21)c1ccccc1 (relative stereo) [Example 9]"
measurement_name = "pIC50"
result = "> 8.00"

[[record]]
compound = "O=C(/C=C/c1ccccc1)N[C@@H]1CCCC[C@@H]1C(=O)N1CC[C@@H]2[C@H](c3ccccc3)Nc3ccccc3[C@@H]21 [Example 101]"
measurement_name = "pIC50"
result = "> 9.00"

[[record]]
compound = "O=C(Nc1ccc(F)cc1)N[C@@H]1CCCC[C@@H]1C(=O)N1CC[C@@H]2[C@H](c3ccccc3)Nc3ccccc3[C@@H]21 [Example 139]"
measurement_name = "pIC50"
result = "> 9.00"

[[record]]
compound = "COC[C@@H]1Nc2ccccc2[C@H]2[C@@H]1CCN2C(=O)[C@H]1CCCC[C@H]1NC(=O)c1nc2ccccc2[nH]1 [Example 237]"
measurement_name = "pIC50"
result = "> 9.00"

[[record]]
compound = "COC[C@@H]1Nc2ccccc2[C@H]2[C@@H]1CCN2C(=O)[C@H]1CCCC[C@H]1NC(=O)c1ccc2ncsc2c1 [Example 253]"
measurement_name = "pIC50"
result = "> 8.00"

[[record]]
compound = "O=C(N[C@@H]1CCCC[C@@H]1C(=O)N1CC[C@@H]2[C@H](c3ccsc3)Nc3ccccc3[C@@H]21)c1ccccc1 [Example 60]"
measurement_name = "pIC50"
result = "> 9.00"

[[record]]
compound = "COc1ccc(CNC(=O)N[C@@H]2CCCC[C@@H]2C(=O)N2CC[C@@H]3[C@H](c4ccccc4)Nc4ccccc4[C@@H]32)cc1 [Example 144]"
measurement_name = "pIC50"
result = "> 8.00"

[[record]]
compound = "COC[C@@H]1Nc2ccccc2[C@H]2[C@@H]1CCN2C(=O)[C@H]1CCCC[C@H]1NC(=O)c1ccc2nccnc2c1 [Example 246]"
measurement_name = "pIC50"
result = "> 8.00"


###

Quick record: IC50, hNK2 receptor (Homo sapiens, UniProt P21452).
measurement_name: IC50

[[record]]
compound = "O=C(N[C@@H]1CCCC[C@@H]1C(=O)N1CC[C@@H]2[C@H](c3ccccc3)Nc3ccccc3[C@@H]21)c1cnccn1"
system = "hNK2 receptor (Homo sapiens, UniProt P21452)"
result = "< 10 nM"

[[record]]
compound = "O=C(N[C@@H]1CCCC[C@@H]1C(=O)N1CC[C@@H]2[C@H](c3ncc[nH]3)Nc3ccccc3[C@@H]21)c1ccccc1 (relative stereo)"
system = "hNK2 receptor (Homo sapiens, UniProt P21452)"
result = "< 1 nM"

[[record]]
compound = "O=C(N[C@@H]1CCCC[C@@H]1C(=O)N1CC[C@@H]2[C@H](c3ccoc3)Nc3ccccc3[C@@H]21)c1ccccc1 (relative stereo)"
system = "hNK2 receptor (Homo sapiens, UniProt P21452)"
result = "< 1 nM"

[[record]]
compound = "COC[C@@H]1Nc2ccccc2[C@H]2[C@@H]1CCN2C(=O)[C@H]1CCCC[C@H]1NC(=O)c1ccc(S(N)(=O)=O)cc1"
system = "hNK2 receptor (Homo sapiens, UniProt P21452)"
result = "< 10 nM"

[[record]]
compound = "COc1ccc(/C=C/C(=O)N[C@@H]2CCCC[C@@H]2C(=O)N2CC[C@@H]3[C@H](c4ccccc4)Nc4ccccc4[C@@H]32)cc1"
system = "hNK2 receptor (Homo sapiens, UniProt P21452)"
result = "< 1 nM"

[[record]]
compound = "COC[C@@H]1Nc2ccccc2[C@H]2[C@@H]1CCN2C(=O)[C@H]1CCCC[C@H]1NC(=O)c1onc2ccccc12"
system = "hNK2 receptor (Homo sapiens, UniProt P21452)"
result = "< 10 nM"

[[record]]
compound = "O=C(N[C@@H]1CCCC[C@@H]1C(=O)N1CC[C@@H]2[C@H](c3cccnc3)Nc3ccccc3[C@@H]21)c1ccccc1 (relative stereo)"
system = "hNK2 receptor (Homo sapiens, UniProt P21452)"
result = "< 10 nM"

[[record]]
compound = "COC[C@@H]1Nc2ccccc2[C@H]2[C@@H]1CCN2C(=O)[C@H]1CCCC[C@H]1NC(=O)c1ccc(C(F)(F)F)cc1"
system = "hNK2 receptor (Homo sapiens, UniProt P21452)"
result = "< 1 nM"

[[record]]
compound = "O=C(N[C@@H]1CCCC[C@@H]1C(=O)N1CC[C@@H]2[C@H](c3ccco3)Nc3ccccc3[C@@H]21)c1ccccc1 (relative stereo)"
system = "hNK2 receptor (Homo sapiens, UniProt P21452)"
result = "< 10 nM"

[[record]]
compound = "COC[C@@H]1Nc2ccccc2[C@H]2[C@@H]1CCN2C(=O)[C@H]1CCCC[C@H]1NC(=O)c1ccc(-n2ccnc2C)cc1"
system = "hNK2 receptor (Homo sapiens, UniProt P21452)"
result = "< 10 nM"

